Recorded values, source the RNAGym collection of RNA variant scans (doi:10.1002/anie.201605470).

Reported self-cleavage is given for each of the following variants.
B1: Osa-1-4 twister ribozyme (parent)
chain: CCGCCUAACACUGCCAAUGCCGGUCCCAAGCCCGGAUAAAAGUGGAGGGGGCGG

variants of: B1; test: self-cleavage, relative activity (ratio to wild type); higher = more cleavage; co-transcriptional

A8U G45U = 0.08
C14U U37G = 0.74
G34U G45U = 0.08

Please look at this variant and report its self-cleavage: A38U C21A
0.53

Please look at this variant and report its self-cleavage: A16G A40C
0.11

Please look at this variant and report its self-cleavage: A36G G35U
0.91
